experimental_system: CDK9/cyclin T1 (Homo sapiens)
Sequence (P50750 whole entry): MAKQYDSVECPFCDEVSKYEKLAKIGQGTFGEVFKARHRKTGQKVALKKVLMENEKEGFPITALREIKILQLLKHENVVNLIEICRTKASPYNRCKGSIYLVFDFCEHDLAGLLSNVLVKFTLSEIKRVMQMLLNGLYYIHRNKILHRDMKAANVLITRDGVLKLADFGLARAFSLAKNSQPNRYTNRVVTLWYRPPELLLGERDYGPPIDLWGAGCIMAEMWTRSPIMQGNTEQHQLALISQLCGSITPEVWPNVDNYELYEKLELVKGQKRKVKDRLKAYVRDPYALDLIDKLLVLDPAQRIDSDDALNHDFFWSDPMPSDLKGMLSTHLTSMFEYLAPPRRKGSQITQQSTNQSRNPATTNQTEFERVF
Sequence (O60563 whole entry partner): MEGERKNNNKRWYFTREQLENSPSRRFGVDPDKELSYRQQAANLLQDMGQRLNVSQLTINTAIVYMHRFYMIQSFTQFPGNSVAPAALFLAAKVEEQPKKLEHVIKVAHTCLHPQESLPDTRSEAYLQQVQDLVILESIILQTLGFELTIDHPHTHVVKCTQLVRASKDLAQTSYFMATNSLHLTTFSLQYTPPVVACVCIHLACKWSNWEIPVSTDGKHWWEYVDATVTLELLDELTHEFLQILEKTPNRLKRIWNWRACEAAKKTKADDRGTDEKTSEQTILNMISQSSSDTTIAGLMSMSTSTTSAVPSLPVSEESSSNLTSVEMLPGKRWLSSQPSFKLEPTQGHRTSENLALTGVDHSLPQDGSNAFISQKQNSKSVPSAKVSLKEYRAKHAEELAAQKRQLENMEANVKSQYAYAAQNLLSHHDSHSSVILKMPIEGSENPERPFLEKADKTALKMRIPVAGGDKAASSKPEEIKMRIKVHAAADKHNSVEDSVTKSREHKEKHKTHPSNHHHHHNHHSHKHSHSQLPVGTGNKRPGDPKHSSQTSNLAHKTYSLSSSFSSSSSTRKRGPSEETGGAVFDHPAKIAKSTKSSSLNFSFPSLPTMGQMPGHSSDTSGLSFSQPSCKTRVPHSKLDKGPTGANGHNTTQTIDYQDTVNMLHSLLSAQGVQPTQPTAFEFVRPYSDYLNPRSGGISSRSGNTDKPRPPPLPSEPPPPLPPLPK
test: CDK9 kinase activity assay
Type: biochemical
measured_property: IC50 (nM)
Respond numerically; units are nM and should not be typed.

Answered examples (2):
In: I'd like to know its IC50. The compound in question is "O=c1cc(-c2ccc(O)c(O)c2)oc2cc(O)cc(O)c12"
Out: 72

In: I'd like to know its IC50. The compound in question is "O=c1cc(-c2ccccc2)oc2cc(O)cc(O)c12"
Out: 21

Now for a further compound.
In: I'd like to know its IC50. The compound in question is "O=c1cc(-c2ccc(O)cc2)oc2cc(O)cc(O)c12"
Out: 210

Value source: paper PMC8052299
